measured.target: T1, Human TNFa N-his trimers (human, UniProt P01375 77-233)
T1 construct: Captured at 5 nM on an NTA sensor chip by the N-terminal his-tags; also called His-tagged TNF (produced at ESBATech); not shown: N-terminal his-tag
T1 sequence (P01375 77-233 limits assumed): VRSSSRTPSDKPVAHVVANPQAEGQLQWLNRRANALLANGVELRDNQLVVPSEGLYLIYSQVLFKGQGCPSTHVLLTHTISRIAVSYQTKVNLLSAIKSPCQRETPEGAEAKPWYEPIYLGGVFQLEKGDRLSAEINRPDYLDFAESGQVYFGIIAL
assay.remarks: SPR BIAcore T100, His-tagged human TNF trimers captured on NTA chip, scFv as analyte
metric.name: Kd (µM)

INSERT INTO results (binder, observed) VALUES
  ('EP43_min (scFv) EIVMTQSPSTLSASVGDRVIITCQASQSISDWLAWYQQKPGKAPKLLIYGASRLASGVPSRFSGSGSGAEFTLTISSLQPDDFATYYCQQGWSDSYVDNLFGQGTKLTVLGGGGGSGGGGSGGGGSGGGGSEVQLVESGGGLVQPGGSLRLSCAASGFSLSSGAMSWVRQAPGKGLEWVSVIISSGATYYASWAKGRFTISRDNSKNTLYLQMNSLRAEDTAVYYCAKGGPDDSNSMGTFDPWGQGTLVTVSS', 5.54);
